Assay: Dissociation constant, pKa of the compound at 10 mM by pressure-assisted capillary electrophoretic/mass spectrometric analysis
Format: physicochemical
readoutLabel: pKa at 10000 µM
One number for each entry.

Below: 4 compounds and their reported pKa at 10000 µM.
INSERT INTO assay_data (molecule, valueobserved) VALUES
  ('Cc1ccc(-c2cccc([S@]3(=O)=NC(=O)[C@H](C)N3)c2)cc1', 6),
  ('Cc1ccc(-c2cccc(C(=O)O)c2)cc1', 4),
  ('N#Cc1cccc(-c2cccc(-c3nn[nH]n3)c2)c1', 4),
  ('Cc1ccc(-c2cccc(-c3nn[nH]n3)c2)cc1', 4.1);

Now for another entry.
Report pKa at 10000 µM for C[C@@H]1N[S@](=O)(c2cccc(-c3cccc(C#N)c3)c2)=NC1=O please.
5.8

These entries and their values trace back to ChEMBL document CHEMBL2086377.
